Test: Pharmacokinetics in moderate hepatic impairment
Type: in vivo, human
Settings: human, in vivo, oral; single dose of 150 mg, moderately impaired hepatic function; read-out: AUC0-∞, mean (±SD)
MEASUREMENT_LABEL: AUC(0-inf) (ng·h/mL)
Give the number; ng·h/mL is assumed, so skip it.

Task item: Look up AUC(0-inf) for this compound: "CC(C)(C)c1cc(C(C)(C)C)c(NC(=O)c2c[nH]c3ccccc3c2=O)cc1O"
Reply: 16800

----------
Test: Plasma protein binding
Assay type: in vitro ADME
Details: human
From the text: Ivacaftor is approximately 99% bound to plasma proteins, primarily to alpha 1-acid glycoprotein and albumin.
MEASUREMENT_LABEL: fraction unbound

Task item: Name the reported fraction unbound value associated with the compound "CC(C)(C)c1cc(C(C)(C)C)c(NC(=O)c2c[nH]c3ccccc3c2=O)cc1O"
Reply: ~0.01

----------
Assay: Clinical pharmacokinetics after oral administration
Format: in vivo, human
Conditions: human, in vivo; following a single dose; read-out: apparent terminal half-life (converted)
MEASUREMENT_LABEL: half-life

Task item: # half-life lookup, item "CC(C)(C)c1cc(C(C)(C)C)c(NC(=O)c2c[nH]c3ccccc3c2=O)cc1O"
Reply: ~720 min

----------
Experiment: Clinical pharmacokinetics after oral administration
Format: in vivo, human
Settings: human, in vivo; fed state; read-out: median (range) tmax
MEASUREMENT_LABEL: Tmax

Task item: Bench note: what Tmax did CC(C)(C)c1cc(C(C)(C)C)c(NC(=O)c2c[nH]c3ccccc3c2=O)cc1O [Ivacaftor] show?
Reply: ~4 h

----------
Experiment: Clinical pharmacokinetics after oral administration
Assay type: in vivo, human
Settings: human, in vivo; single 150 mg oral dose, healthy volunteers, fed state; read-out: Cmax, mean (±SD)
MEASUREMENT_LABEL: Cmax (ng/mL)
// units = ng/mL; emit number, no label

Task item: Reported Cmax, molecule "CC(C)(C)c1cc(C(C)(C)C)c(NC(=O)c2c[nH]c3ccccc3c2=O)cc1O" : ____
Reply: 768

----------
Test: Pharmacokinetics in moderate hepatic impairment
Type: in vivo, human
Details: human, in vivo, oral; single dose of 150 mg, moderately impaired hepatic function; read-out: Cmax, mean (±SD)
MEASUREMENT_LABEL: Cmax

Task item: GET /values?readout=Cmax&item= "CC(C)(C)c1cc(C(C)(C)C)c(NC(=O)c2c[nH]c3ccccc3c2=O)cc1O"
Reply: 735 ng/mL

----------
Experiment: Clinical pharmacokinetics after oral administration
Format: in vivo, human
Conditions: human, in vivo; single 150 mg oral dose, healthy volunteers, fed state; read-out: AUC, mean (±SD)
MEASUREMENT_LABEL: AUC (ng·h/mL)
Lab book: enter the figure in ng·h/mL, no units written.

Task item: Recorded AUC for CC(C)(C)c1cc(C(C)(C)C)c(NC(=O)c2c[nH]c3ccccc3c2=O)cc1O [Ivacaftor] , please?
Reply: 10600
